System: U2OS
Experiment: Multiplex assay against U2OS
Type: toxicity, cell-based
Conditions: human, 24 h, 10 µM, compound concentration 10 uM, replicate 1
readoutType: Population Tubulin-Different-Phenotype (%)
Kindly provide the numeric value in % only, without the unit symbol.

Form field, Population Tubulin-Different-Phenotype (%) with U2OS, item `COc1cc2nccc(Oc3ccc(NC(=O)Nc4cc(C)on4)c(Cl)c3)c2cc1OC.O` : 100

Form field, Population Tubulin-Different-Phenotype (%) with U2OS, item `CC(C)(O)CNc1ncc(-c2ccnc(Nc3ccnc(Cl)c3)n2)c(CC2CC2)n1` : 100

Form field, Population Tubulin-Different-Phenotype (%) with U2OS, item Cc1nc(-c2cn3c(n2)-c2ccc(-c4cnn(C(C)(C)C(N)=O)c4)cc2OCC3)n(C(C)C)n1 [TASELISIB] : 26

Form field, Population Tubulin-Different-Phenotype (%) with U2OS, item Cc1c(-c2ccc(O)cc2)n(Cc2ccc(OCCN3CCCCCC3)cc2)c2ccc(O)cc12 [BAZEDOXIFENE] : 98

Form field, Population Tubulin-Different-Phenotype (%) with U2OS, item CN1CCC[C@@H]1CCO[C@](C)(c1ccccc1)c1ccc(Cl)cc1.O=C(O)/C=C/C(=O)O [CLEMASTINE FUMARATE] : 68

Form field, Population Tubulin-Different-Phenotype (%) with U2OS, item `C=CC(=O)Nc1cccc(C(=O)Nc2ccc(Nc3cc(-c4[nH]c(SC)nc4C)ccn3)cc2)c1` : 6

Form field, Population Tubulin-Different-Phenotype (%) with U2OS, item `Cc1csc2c(N[C@@H](C)CN3CCN(S(=O)(=O)c4ccc(Cl)c(Cl)c4)CC3)ncnc12` : 100

Form field, Population Tubulin-Different-Phenotype (%) with U2OS, item C[C@@H](NCCCc1cccc(C(F)(F)F)c1)c1cccc2ccccc12.Cl [CINACALCET HYDROCHLORIDE] : 100

Form field, Population Tubulin-Different-Phenotype (%) with U2OS, item COc1ncc(-c2ccc3nccc(-c4ccnnc4)c3c2)cc1NS(=O)(=O)c1ccc(F)cc1F [OMIPALISIB] : 17

Form field, Population Tubulin-Different-Phenotype (%) with U2OS, item CCN(CC)CCCCNc1ncc2cc(-c3cc(OC)cc(OC)c3)c(NC(=O)NC(C)(C)C)nc2n1 [PD-173074] : 74

Form field, Population Tubulin-Different-Phenotype (%) with U2OS, item CN1CCCC(n2nc(Cc3ccc(Cl)cc3)c3ccccc3c2=O)CC1.Cl (configuration not stated) [AZELASTINE HYDROCHLORIDE] : 100

Form field, Population Tubulin-Different-Phenotype (%) with U2OS, item COc1cccc([C@@H](C)NCCCc2ccccc2Cl)c1.Cl [TECALCET HYDROCHLORIDE] : 79

Form field, Population Tubulin-Different-Phenotype (%) with U2OS, item CC(C)NCC(O)COc1ccc(CCOCC2CC2)cc1.Cl (configuration not stated) [BETAXOLOL HYDROCHLORIDE] : 31

Form field, Population Tubulin-Different-Phenotype (%) with U2OS, item CNCc1ccccc1-c1csc([C@H](C)Nc2nc(C)nc3cc(OC)c(OC)cc23)c1 [BAY-294] : 100

Form field, Population Tubulin-Different-Phenotype (%) with U2OS, item `Cc1cc(C)cc(-c2cnc3cc(Cl)c(-c4cccc(O)c4)cc3c2OCCCN)c1` : 66

Form field, Population Tubulin-Different-Phenotype (%) with U2OS, item c1cn2cc(-c3ccc4cn[nH]c4c3)nc(Nc3ccc(N4CCOCC4)cc3)c2n1 [ENTOSPLETINIB] : 53

---

Tested on: HEK-293T
Assay: Multiplex assay against HEK293T
Format: toxicity, cell-based
Conditions: human, 48 h, 1 µM, compound concentration 1 uM, replicate 2
Exercise: for every item that follows, state its recorded Population Healthy Nuclei (%).
Record the result as number plus unit.

Memo: CC[C@H](C)C(=O)O[C@H]1C[C@@H](C)C=C2C=C[C@H](C)[C@H](CC[C@@H]3C[C@@H](O)CC(=O)O3)[C@H]21 [LOVASTATIN] , reported Population Healthy Nuclei (%): 81%

Memo: CC(C)NCC(O)COc1ccc(CCOCC2CC2)cc1.Cl (stereo not drawn) [BETAXOLOL HYDROCHLORIDE] , reported Population Healthy Nuclei (%): 81%

Memo: Cl.N#Cc1ccc2[nH]cc(CCCCN3CCN(c4ccc5oc(C(N)=O)cc5c4)CC3)c2c1 [VILAZODONE HYDROCHLORIDE] , reported Population Healthy Nuclei (%): 68%

Memo: `CNc1nc(NCc2ccc(NS(C)(=O)=O)cc2Cl)cc(-c2ccccn2)n1` , reported Population Healthy Nuclei (%): 76%

Memo: `OC1(c2ccc(Cl)cc2)CCN(Cc2c[nH]c3ccccc23)CC1` , reported Population Healthy Nuclei (%): 70%

Memo: COc1ncc(-c2ccc3nccc(-c4ccnnc4)c3c2)cc1NS(=O)(=O)c1ccc(F)cc1F [OMIPALISIB] , reported Population Healthy Nuclei (%): 36%

Memo: COc1cccc([C@@H](C)NCCCc2ccccc2Cl)c1.Cl [TECALCET HYDROCHLORIDE] , reported Population Healthy Nuclei (%): 76%

Memo: Cc1c(-c2ccc(O)cc2)n(Cc2ccc(OCCN3CCCCCC3)cc2)c2ccc(O)cc12 [BAZEDOXIFENE] , reported Population Healthy Nuclei (%): 75%

---

Tested on: HEK-293T
Assay: Multiplex assay against HEK293T
Format: toxicity, cell-based
Settings: human, 24 h, 10 µM, compound concentration 10 uM, replicate 1
readoutType: Population Hoechst High Intensity Objects (%)
Kindly provide the numeric value in % only, without the unit symbol.

Memo: CN1CCC[C@@H]1CCO[C@](C)(c1ccccc1)c1ccc(Cl)cc1.O=C(O)/C=C/C(=O)O [CLEMASTINE FUMARATE] , reported Population Hoechst High Intensity Objects (%): 23

Memo: `Cn1cncc1[C@@](O)(COc1ccc(C#N)cc1-c1ccc(OC(F)(F)F)cc1)c1ccc(C#N)cc1` , reported Population Hoechst High Intensity Objects (%): 10

Memo: `CC(C)(O)CNc1ncc(-c2ccnc(Nc3ccnc(Cl)c3)n2)c(CC2CC2)n1` , reported Population Hoechst High Intensity Objects (%): 23

Memo: `Cn1cc(-c2[nH]c3cc(NC(=O)[C@H](N)C4CCCCC4)cc4c3c2C=NNC4=O)cn1` , reported Population Hoechst High Intensity Objects (%): 17

Memo: `Cc1cc(C)cc(-c2cnc3cc(Cl)c(-c4cccc(O)c4)cc3c2OCCCN)c1` , reported Population Hoechst High Intensity Objects (%): 12

---

System: HEK-293T
Test: Multiplex assay against HEK293T
Type: toxicity, cell-based
Details: human, 24 h, 1 µM, compound concentration 1 uM, replicate 1
readoutType: Total Cell Count
The answer should be written as a number, with no unit following it.

Form field, Total Cell Count with HEK-293T, item `Cn1cc(-c2[nH]c3cc(NC(=O)[C@H](N)C4CCCCC4)cc4c3c2C=NNC4=O)cn1` : 330

Form field, Total Cell Count with HEK-293T, item `CC(C)(O)CNc1ncc(-c2ccnc(Nc3ccnc(Cl)c3)n2)c(CC2CC2)n1` : 319

Form field, Total Cell Count with HEK-293T, item COc1cccc([C@@H](C)NCCCc2ccccc2Cl)c1.Cl [TECALCET HYDROCHLORIDE] : 417

Form field, Total Cell Count with HEK-293T, item `COc1ncc(-c2ccc3nccc(-c4ccnnc4)c3c2)cc1NS(=O)(=O)c1ccc(F)cc1F` : 280

Form field, Total Cell Count with HEK-293T, item `CN1CCN(c2ccc(OC(F)(F)F)c(Nc3ncc4c(n3)-c3c(c(C(N)=O)nn3CCO)CC4)c2)CC1` : 211

Form field, Total Cell Count with HEK-293T, item `COc1cc(-n2cnc3cc(-c4ccc(Cl)cc4)sc3c2=O)ccc1OCCN1CCCC1` : 207

Form field, Total Cell Count with HEK-293T, item `NC(=O)Nc1cc(-c2cccc(F)c2)sc1C(=O)N[C@H]1CCCNC1` : 632

Form field, Total Cell Count with HEK-293T, item `OC1(c2ccc(Cl)cc2)CCN(Cc2c[nH]c3ccccc23)CC1` : 210

Form field, Total Cell Count with HEK-293T, item `CN(C)C(=O)/C(C#N)=C/c1ccc(-c2nc3cnc4[nH]ccc4c3n2C2CCCCC2)o1` : 316

Form field, Total Cell Count with HEK-293T, item CN1CCCC(n2nc(Cc3ccc(Cl)cc3)c3ccccc3c2=O)CC1.Cl (centres undefined) [AZELASTINE HYDROCHLORIDE] : 353

Form field, Total Cell Count with HEK-293T, item CN(C)C(=O)N[C@H]1CC[C@H](CCN2CCN(c3cccc(Cl)c3Cl)CC2)CC1.Cl [CARIPRAZINE HYDROCHLORIDE] : 379

Form field, Total Cell Count with HEK-293T, item `Cc1nc(-c2ccc(-c3ccc(C(=O)N4CCc5cc6c(cc54)C4(CCN(C)CC4)CO6)cc3)c(C)c2)no1` : 231

Form field, Total Cell Count with HEK-293T, item `Cc1nc(-c2cn3c(n2)-c2ccc(-c4cnn(C(C)(C)C(N)=O)c4)cc2OCC3)n(C(C)C)n1` : 507

Form field, Total Cell Count with HEK-293T, item `Cc1cc(C)cc(-c2cnc3cc(Cl)c(-c4cccc(O)c4)cc3c2OCCCN)c1` : 358

Form field, Total Cell Count with HEK-293T, item C[C@@H](NCCCc1cccc(C(F)(F)F)c1)c1cccc2ccccc12.Cl [CINACALCET HYDROCHLORIDE] : 417

Form field, Total Cell Count with HEK-293T, item `C[C@@]1(C(=O)Nc2ccc(F)nc2)CCCN1c1nc(Nc2cc(C3CC3)n[nH]2)c2cccn2n1` : 652

Form field, Total Cell Count with HEK-293T, item `Cc1c(-c2ccc(O)cc2)n(Cc2ccc(OCCN3CCCCCC3)cc2)c2ccc(O)cc12` : 180

Form field, Total Cell Count with HEK-293T, item CC(C)NCC(O)COc1ccc(CCOCC2CC2)cc1.Cl (centres undefined) [BETAXOLOL HYDROCHLORIDE] : 403

Form field, Total Cell Count with HEK-293T, item O=C1NCN(c2ccccc2)C12CCN(CCCOc1ccc(F)cc1)CC2 [SPIRAMIDE] : 248

Form field, Total Cell Count with HEK-293T, item `CNc1nc(NCc2ccc(NS(C)(=O)=O)cc2Cl)cc(-c2ccccn2)n1` : 234

Form field, Total Cell Count with HEK-293T, item C=CC(=O)Nc1cc2c(Nc3ccc(F)c(Cl)c3)ncnc2cc1OCCCN1CCOCC1.Cl.Cl [CANERTINIB DIHYDROCHLORIDE] : 612

Form field, Total Cell Count with HEK-293T, item `CN1CCN(CCOc2cc(OC3CCOCC3)c3c(Nc4c(Cl)ccc5c4OCO5)ncnc3c2)CC1` : 382

Form field, Total Cell Count with HEK-293T, item `CCN(CC)CCCCNc1ncc2cc(-c3cc(OC)cc(OC)c3)c(NC(=O)NC(C)(C)C)nc2n1` : 629

Form field, Total Cell Count with HEK-293T, item `C=CC(=O)Nc1cccc(C(=O)Nc2ccc(Nc3cc(-c4[nH]c(SC)nc4C)ccn3)cc2)c1` : 365

Form field, Total Cell Count with HEK-293T, item CN1CCC[C@@H]1CCO[C@](C)(c1ccccc1)c1ccc(Cl)cc1.O=C(O)/C=C/C(=O)O [CLEMASTINE FUMARATE] : 274

Form field, Total Cell Count with HEK-293T, item Cl.N#Cc1ccc2[nH]cc(CCCCN3CCN(c4ccc5oc(C(N)=O)cc5c4)CC3)c2c1 [VILAZODONE HYDROCHLORIDE] : 412

Form field, Total Cell Count with HEK-293T, item `Cc1csc2c(N[C@@H](C)CN3CCN(S(=O)(=O)c4ccc(Cl)c(Cl)c4)CC3)ncnc12` : 244

Form field, Total Cell Count with HEK-293T, item `Cc1nc(Nc2n[nH]c3c2CN(C(=O)N[C@H](CN(C)C)c2ccccc2)C3(C)C)c2sccc2n1` : 623

Form field, Total Cell Count with HEK-293T, item `CC[C@H](C)C(=O)O[C@H]1C[C@@H](C)C=C2C=C[C@H](C)[C@H](CC[C@@H]3C[C@@H](O)CC(=O)O3)[C@H]21` : 192

Form field, Total Cell Count with HEK-293T, item `c1cn2cc(-c3ccc4cn[nH]c4c3)nc(Nc3ccc(N4CCOCC4)cc3)c2n1` : 227

Form field, Total Cell Count with HEK-293T, item `C=CC(=O)Nc1ccc2ncnc(Nc3ccc(OCc4cccc(F)c4)c(Cl)c3)c2c1.Cc1ccc(S(=O)(=O)O)cc1` : 351

Form field, Total Cell Count with HEK-293T, item `CN(C)CC#Cc1ccc(OCCCc2sc(N3CCc4cccc(C(=O)Nc5nc6ccccc6s5)c4C3)nc2C(=O)O)c(F)c1` : 286

Form field, Total Cell Count with HEK-293T, item `Cc1[nH]c(/C=C2\C(=O)Nc3ccc(S(=O)(=O)N(C)c4cccc(Cl)c4)cc32)c(C)c1C(=O)N1CCN(C)CC1` : 212
